Biological target: T1, human ENPP3 (human, UniProt O14638 46-875, limits assumed)
T1 construct: neither the construct nor the method is stated; also called ectonucleotide pyrophosphatase/phosphodiesterase family member 3
T1 sequence (looked up): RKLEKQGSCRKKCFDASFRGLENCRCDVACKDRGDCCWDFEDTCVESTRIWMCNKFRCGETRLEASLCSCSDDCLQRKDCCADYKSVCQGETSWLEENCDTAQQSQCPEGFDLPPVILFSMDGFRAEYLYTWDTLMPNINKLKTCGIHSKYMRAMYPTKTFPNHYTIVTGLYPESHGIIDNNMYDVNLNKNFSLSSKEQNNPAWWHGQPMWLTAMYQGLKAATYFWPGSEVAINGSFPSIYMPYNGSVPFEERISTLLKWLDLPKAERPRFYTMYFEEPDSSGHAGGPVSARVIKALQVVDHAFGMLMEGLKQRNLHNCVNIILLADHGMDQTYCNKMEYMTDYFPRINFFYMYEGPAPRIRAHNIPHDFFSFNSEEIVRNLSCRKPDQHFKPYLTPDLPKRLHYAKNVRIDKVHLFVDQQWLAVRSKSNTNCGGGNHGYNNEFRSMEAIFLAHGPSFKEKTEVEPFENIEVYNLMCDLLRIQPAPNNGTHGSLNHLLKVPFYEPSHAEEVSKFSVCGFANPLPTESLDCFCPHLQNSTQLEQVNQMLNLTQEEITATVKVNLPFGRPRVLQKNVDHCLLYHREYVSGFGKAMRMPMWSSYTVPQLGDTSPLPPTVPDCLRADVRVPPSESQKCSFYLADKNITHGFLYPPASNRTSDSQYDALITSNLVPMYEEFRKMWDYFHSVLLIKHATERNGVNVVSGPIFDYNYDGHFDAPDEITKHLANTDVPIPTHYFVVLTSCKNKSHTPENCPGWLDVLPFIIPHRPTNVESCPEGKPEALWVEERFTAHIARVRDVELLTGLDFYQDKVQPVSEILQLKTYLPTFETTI
Test: binding affinity to human ENPP3; method not stated
Simple rule here: Kd less than 300 pM is YES, otherwise NO.

Worked set:
# binder, label class
rows = [
    ("NPP3B107 (antibody, V domains shown, mAb from Ablexis Kappa mice) VH: EVQLVESGGGLVKPGGSLRLSCAASGFIFSDYSMNWVRQAPGKGLEWVSSISSGSSYIYYADSLKGRFTISRDNAKNSLYLQMSSLRAEDTAVYYCVRGLDYFDYWGQGALVTVSS VL: DIQMTQSPSFLSASVGDRVTITCRASQDISNYLAWYQQKPGRAPKLLIYVASTLQSGVPSRFSGSGSGTEFTLTISSLQPEDFATYYCQQLNSYPRTFGQGTKVEIK", "YES"),
    ("NPP3B86 (antibody, V domains shown, mAb from Ablexis Kappa mice) VH: QVQLVQSGAEVKKPGASVKVSCKASGYTVTNYYIFWVRQAPGQGLEWMGWINPNSGGTNYAQKFQGRVTMTRDTSINTAYMKLSRLGSDDTAVYYCARGGYSGYALSSHYGMDVWGQGTMVTVSS VL: EIVLTQSPGTLSLSPGERATLSCRASQSVSSSYLAWYQQKPGQAPRLLIYDASSRATGIPDRFSGSGSGTDFTLIISRLEPEDFAVYYCQQYDSSPLTFGGGTKVEIK", "YES"),
]

Prompt: Bench note: check whether NPP3B98 (antibody, V domains shown, mAb from Ablexis Kappa mice) VH: QVQLQESGPGLVKPSETLSLTCTVSGGSISNYYWSWIRQPAGKGLEWIGRIYASGSTNYNPSLKSRVTMSVDTSKNQFSLRLRSVTATDTAVYYCAREGYSSTLYDNAFDFWGQGTMVTVSS VL: DIQMTQSPSSVSASVGGRVTITCRASQGISTWLAWYQQKPGKAPKLLIYAASSLQSGVPSRFSGSGSGTDFTLTISSLQPEDFATYYCQQANSFPLTFGGGTKVEIK shows Kd below 300 pM
Response: YES

Prompt: Bench note: check whether NPP3B56 (antibody, V domains shown, mAb from Ablexis Kappa mice) VH: EVQLVESGGGRVKPGGSLRLSCAASGFTFSDYSMNWVRQAPGKGLEWVSSISSISSYVKYADSVKGRFTMSRDNAKNSLFLQMNSLRDEDMAVYYCARGHYFDYWGQGTLVTVSS VL: EIVMTQSPATLSVSPGERATLSCRASQSVSSNLAWYQQKPGLAPRLLIYGASTRATGIPARFSGSGSGTEFTLTISSLQSEDFAVYYCQQYNNWPRTFGQGTKVEIK shows Kd below 300 pM
Response: YES

Prompt: Bench note: check whether NPP3B62 (antibody, V domains shown, mAb from Ablexis Kappa mice) VH: QVQLQESGPGLVRPSETLSLTCTVSGGSISSYYWSWIRQPAGKGLEWIGRIYTTGRIYTSGYTNYNPSLKSRVTMSIDTSKIQFSLRLNSVTAADTAVYWCARGGELFTDGFDIWGQGTMVTVSS VL: EIVMTQSPGTLSLSPGERATLSCRASQSVISTYLAWYQQNPGQAPRLLIYGASSRATGIPDRFSGSGSGTDFTLTISRLEPEDFVVYYCQQYDTSPITFGQGTRLEIK shows Kd below 300 pM
Response: YES

Prompt: Bench note: check whether NPP3B61 (antibody, V domains shown, mAb from Ablexis Kappa mice) VH: QVQLQESGPGLVRPSETLSLTCTVSGGSISSYYWSWIRQPAGKGLEWIGRIYTTGRIYTSGYTNYNPSLKSRVTMSIDTSKIQFSLRLNSVTAADTAVYWCARGGELFTDGFDIWGQGTMVTVSS VL: EIVMTQSPGTLSLSPGERATLSCRASQSVISTYLAWYQQNPGQAPRLLIYGASSRATGIPDRFSGSGSGTDFTLTISRLEPEDFAVYYCQQYDTSPITFGQGTRLEIK shows Kd below 300 pM
Response: NO

Prompt: Bench note: check whether NPP3B101 (antibody, V domains shown, mAb from Ablexis Kappa mice) VH: QVQLQESGPGLVKTSETLSLTCTVSGGSISSHYWSWIRQPPGKGLEWIGNIFYSGSTNYNPSLKSRVTMSVDTSKNHFSLKLISVTTADTAIYYCARHDHVWFDPWGQGTLVTVSS VL: EIVLTQSPGTLSVFPGERATLSCRASQSVSRNLVWYQQKPGQAPRLLIYGASTRATGIPDRFSGSGSGTEFTLTISSLQSEDFAVYYCQQYNNWPPWTFGQGTKVEIK shows Kd below 300 pM
Response: YES

Prompt: Bench note: check whether NPP3B60 (antibody, V domains shown, mAb from Ablexis Kappa mice) VH: QVQLVQSGAEVKKPGESLKISCKGSGYGFTNYWIGWVRQMPGKGLEWMGIIYPSDSNTRYSPSFQGQVTISADKSINTAYLQWSSLKASDTAMYYCTRQNYYYYTMDVWGQGTTVTVSS VL: DIQMTQSPSFLSASVGDRVTITCRASQVIRSYLAWYQQKPGKAPKLLIYGASTLQSGFPSRFSGSGSGTEFTLTISSLQPEDFATYYCQQLNSYPRTFGQGTKVEIK shows Kd below 300 pM
Response: NO

Prompt: Bench note: check whether NPP3B64 (antibody, V domains shown, mAb from Ablexis Kappa mice) VH: QVQLVQSGAEVKKPGASVKVSCKASGYTFTTYYIHWVRQAPGQGLEWMGIINPSGGSTNYAQKFQGRVTMTRDTSTRIVYMELGSLRSEDTAVYYCARDYYYYYYGMDVWGQGTTVTVSS VL: DIVMTQSPLSLPVTLGQPASISCRSSQSLVRNGGYTYLNWLQQRPGQPPRLLIYQISNRFSGVPDRFSGSGAGTDFTLTISRVEAEDVGVYYCMQATQFPHTFGQGTKLEIK shows Kd below 300 pM
Response: NO
